# Test system: Premature termination codon
# Protocol notes: Induction of read through activity at T-p53 R213X mutant premature termination codon in human HDQ-P1 cells assessed as increase in production of full length p53 protein by MSD assay
# Format: cell-based
# Applied conditions: filed as activator
Consider the following compounds; for each one, report its EC2.
One number for each entry, in µM.

Compound: Cc1cccc2nc(NC(=N)NCCCN3CCCC3)nc(C)c12
Measurement target: Premature termination codon
Assay metric: EC2
Measured number: 0.84
--
Compound: CN(C)CCCNC(=N)Nc1nc(-c2ccoc2)c2sccc2n1
Measurement target: Premature termination codon
Assay metric: EC2
Measured number: 0.7
--
Compound: CCc1cc(C)nc(NC(=N)NCCCN(C)C)n1
Measurement target: Premature termination codon
Assay metric: EC2
Measured number: 17

For every item below, please supply its EC2.
1. Cc1ccc2c(C)nc(NC(=N)NCCOCCO)nc2c1
2. Cc1nc(NC(=N)NCCCN2CCN3CCCCC3C2)nc2cc(F)ccc12 (stereo not given)
3. Cc1nc(NC(=N)NCCCN(C)C)nc(-c2ccoc2)c1C
4. Cc1nc(NC(=N)NCCCN(C)C)nc2cc(Cl)ccc12

### Response
1: 48; 2: 3.5; 3: 1.3; 4: 0.85

For every item below, please supply its EC2.
1. Cc1nc(NC(=N)NCCCN2CCCC2)nc2cc(F)ccc12
2. CN(C)CCCNC(=N)Nc1ncc2ccccc2n1
3. Cc1nc(NC(=N)N[C@H](C)CCN(C)C)nc2ccccc12
4. CN1CCC(NC(=N)Nc2nc3c(c(-c4ccco4)n2)CCC3)CC1
5. Cc1nc(NC(=N)NCCCN(C)C)nc2cccc(F)c12
6. Cc1nc(NC(=N)NCCCN2CCCC2)nc(-c2ccsc2)c1C
7. Cc1nc(NC(=N)NCCCN2CCCC2)nc(-c2ccoc2)c1Br
8. CN(C)CCCNC(=N)Nc1nc2c(c(-c3ccoc3)n1)COC2

### Response
1: 1.5; 2: 7.5; 3: 2.5; 4: 0.12; 5: 0.92; 6: 1.4; 7: 0.96; 8: 2.4

For every item below, please supply its EC2.
1. Cc1nc(NC(=N)NCCCN2CCCCC2)nc2cc(F)ccc12
2. CN(C)CCCNC(=N)Nc1nc2c(c(-c3ccoc3)n1)CCC2

### Response
[0.68, 0.44]

For every item below, please supply its EC2.
1. Cc1nc(NC(=N)NCC2(CN(C)C)CCCC2)nc2cc(F)ccc12
2. Cc1nc(NC(=N)NCCCN2CCCC2)nc2ccccc12
3. COc1cccc(NC(=N)Nc2nc(C)c3ccccc3n2)c1
4. CN(C)CCCNC(=N)Nc1nc(-c2ccccc2)c2ccccc2n1
5. Cc1cccc2nc(NC(=N)NC3CCN(C)CC3)nc(C)c12

### Response
1. 16
2. 2.1
3. 21
4. 7.5
5. 0.51

For every item below, please supply its EC2.
1. Cc1nc(NC(=N)NCCCN)nc2cc(F)ccc12
2. N=C(NCCCN1CCCCC1)Nc1nc2c(c(-c3ccoc3)n1)CCC2
3. Cc1nc(N=C(N)N)nc2cc(F)ccc12

### Response
1. 9.8
2. 0.4
3. 13

====

# Tested on: Premature termination codon
# Protocol notes: Induction of read through activity at T-p53 R213X mutant premature termination codon in human HDQ-P1 cells assessed as increase in production of full length p53 protein by MSD assay
# Type: cell-based
# Applied conditions: filed as activator
Lab note: compare EC2 with 2 µM, writing Fulfilled if less and Not fulfilled if equal or more.

The examples below pair each entry with its known result.
Smiles representation: Cc1nc(NC(=N)NCCCN2CCC3(CCC3)C2)nc2cc(F)ccc12
Measurement target: Premature termination codon
Category label: Not fulfilled

Smiles representation: Cc1nc(NC(=N)NCCCN2CCCC2)nc(-c2ccoc2)c1C
Measurement target: Premature termination codon
Category label: Fulfilled

Smiles representation: Cc1nc(NC(=N)NCCCN2CCCC2)nc2c(C)cccc12
Measurement target: Premature termination codon
Category label: Fulfilled

### Prompt Hello, I'm reviewing records and need to know if EC2 of Cc1cc(-c2ccoc2)nc(NC(=N)NCCCN(C)C)n1 is below 2 µM. Could you check?
### Response Not fulfilled

### Prompt Hello, I'm reviewing records and need to know if EC2 of Cc1nc(NC(=N)NCCCCCN(C)C)nc2cc(F)ccc12 is below 2 µM. Could you check?
### Response Not fulfilled

### Prompt Hello, I'm reviewing records and need to know if EC2 of Cc1nc(NC(=N)NCCO)nc2cc(F)ccc12 is below 2 µM. Could you check?
### Response Not fulfilled

====

# System: Premature termination codon
# Protocol notes: Induction of read through activity at T-p53 R213X mutant premature termination codon in human HDQ-P1 cells assessed as increase in production of full length p53 protein by MSD assay
# Assay type: cell-based
# Applied conditions: filed as activator
Consider the following molecules; for each one, report its log10 EC2.
Base-10 log of EC2, unit µM.

Molecule: CCN(CC)CCCNC(=N)Nc1nc(C)c2ccc(F)cc2n1
Measured number: 0.34
//
Molecule: COCCNC(=N)Nc1nc(C)c2ccc(C)cc2n1
Measured number: 1.08

For every item below, please supply its log10 EC2.
1. CN(C)CCCNC(=N)Nc1nc(-c2ccoc2)c2occc2n1
2. Cc1nc(NC(=N)N)nc2ccccc12
3. Cc1nc(NC(=N)NCCCN(C)C)nc2ccccc12
4. Cc1nc(NC(=N)NCCCN2CCCC2)nc(-c2ccoc2)c1C(F)(F)F
5. Cc1cc(-c2ccccc2)nc(NC(=N)NCCCN(C)C)n1
6. Cc1cccc2nc(NC(=N)N[C@@H]3CCNC3)nc(C)c12
7. CCc1c(C)nc(NC(=N)NCCCN2CCCC2)nc1-c1ccoc1

### Response
0.30
1.30
0.23
1.18
0.86
0.11
0.51

For every item below, please supply its log10 EC2.
1. CNC(=N)Nc1nc(C)c2ccc(C)cc2n1
2. CCNC(=N)Nc1nc(C)c2ccc(Cl)cc2n1
3. N=C(NCCCN1CCC1)Nc1nc2c(c(-c3ccoc3)n1)CCC2
4. Cc1cccc2nc(NC(=N)N[C@H]3CCN(C)C3)nc(C)c12

### Response
[0.89, 1.32, -0.36, 0.00]

For every item below, please supply its log10 EC2.
1. Cc1nc(NC(=N)NCCCN2CCCC2)nc(-c2ccco2)c1C
2. CN(C)CCCNC(=N)Nc1nc(-c2ccoc2)c2ccsc2n1

### Response
[-0.25, 0.11]

For every item below, please supply its log10 EC2.
1. CN(C)CCCNC(=N)Nc1nc2c(c(-c3ccoc3)n1)CCCCC2
2. Cc1nc(NC(=N)NCCCc2ccccc2)nc2ccccc12

### Response
1: 0.54; 2: 1.67

====

# System: Premature termination codon
# Protocol notes: Induction of read through activity at T-p53 R213X mutant premature termination codon in human HDQ-P1 cells assessed as increase in production of full length p53 protein by MSD assay
# Assay type: cell-based
# Applied conditions: filed as activator
Assay metric: EC2 (µM)
One number for each entry, in µM.

These solved cases illustrate the format of a correct answer.
Smiles representation: CN[C@@H]1[C@@H](O)[C@@H](O[C@@H]2[C@@H](O)[C@H](O[C@H]3O[C@H]([C@H](C)O)[C@@H](O)[C@H](O)[C@H]3N)[C@@H](N)C[C@H]2N)OC[C@]1(C)O
Measurement target: Premature termination codon
EC2, µM: 8.5
//
Smiles representation: Cc1nc(NC(=N)NCCCN(C)CC2CCC2)nc2cc(F)ccc12
Measurement target: Premature termination codon
EC2, µM: 1.1
//
Smiles representation: CN(C)CCCNC(=N)Nc1nc2c(c(-c3ccoc3)n1)CCCC2
Measurement target: Premature termination codon
EC2, µM: 1.1
//
Smiles representation: CNCCCNC(=N)Nc1nc(C)c2ccc(F)cc2n1
Measurement target: Premature termination codon
EC2, µM: 2.5

### Prompt Entry Cc1nc(NC(=N)NCCCN2CCCC2)nc(-c2ccoc2)c1Cl , system Premature termination codon: what EC2 was measured?
### Response 0.77

====

# Test system: Premature termination codon
# Protocol notes: Induction of read through activity at T-p53 R213X mutant premature termination codon in human HDQ-P1 cells assessed as increase in production of full length p53 protein by MSD assay
# Format: cell-based
# Applied conditions: filed as activator
Assay metric: EC2 (µM)
One number for each entry, in µM.

Compound: Cc1nc(NC(=N)NCCN(C)C)nc2cc(F)ccc12
Measured number: 3.9
//
Compound: Cc1nc(N=C(N)N)nc2cc(Cl)ccc12
Measured number: 6.3
//
Compound: Cc1ccc2c(C)nc(NC(=N)N)nc2c1
Measured number: 10
//
Compound: Cc1nc(NC(=N)NC2CCCC(N(C)C)C2)nc2cc(F)ccc12 (stereo unspecified)
Measured number: 5.5
//
Compound: CN1CCC(NC(=N)Nc2nc3c(c(-c4ccoc4)n2)CCC3)CC1
Measured number: 0.22

For every item below, please supply its EC2.
1. Cc1cccc2nc(NC(=N)N[C@@H]3CCN(C)C3)nc(C)c12
2. Cc1nc(NC(=N)NCCCN2CCCC2)nc(-c2cccs2)c1C
3. Cc1nc(NC(=N)NCCCCCCN(C)C)nc2cc(F)ccc12
4. CN(C)CCCNC(=N)Nc1nc2c(c(-c3ccoc3)n1)CCCCCC2
5. Cc1ccc2c(C)nc(NC(=N)NCCCN(C)C)nc2c1
6. Cc1cccc2nc(NC(=N)N[C@H]3CCNC3)nc(C)c12

### Response
1. 0.34
2. 0.42
3. 17
4. 2.7
5. 1.1
6. 2.2
